B1: TPR t1 (parent)
chain: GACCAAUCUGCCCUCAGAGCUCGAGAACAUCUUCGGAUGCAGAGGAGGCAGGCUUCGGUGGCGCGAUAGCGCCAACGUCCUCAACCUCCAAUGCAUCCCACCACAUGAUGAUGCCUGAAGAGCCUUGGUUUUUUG

Variants of: B1
protocol.notes: polymerase ribozyme fitness, log enrichment relative to wild type (log ratio); higher = more active; in vitro selection for triplet polymerase activity
Outcome label depends on polymerase ribozyme fitness (log ratio) relative to -4: at/above gives Y, below gives N.

input: Given the entry C15U A18G A37G U54A G65C A100U C115A , answer whether its polymerase ribozyme fitness (log ratio) meets or surpasses -4.
output: N

input: Given the entry A16G G77A C85G , answer whether its polymerase ribozyme fitness (log ratio) meets or surpasses -4.
output: Y

input: Given the entry G69A G127C , answer whether its polymerase ribozyme fitness (log ratio) meets or surpasses -4.
output: Y

input: Given the entry C49G G58C , answer whether its polymerase ribozyme fitness (log ratio) meets or surpasses -4.
output: Y

input: Given the entry A16U C20A C64U U87C U130C , answer whether its polymerase ribozyme fitness (log ratio) meets or surpasses -4.
output: N

input: Given the entry A2G G61A , answer whether its polymerase ribozyme fitness (log ratio) meets or surpasses -4.
output: Y

input: Given the entry C20G A50U U78C U96G U112A A118G , answer whether its polymerase ribozyme fitness (log ratio) meets or surpasses -4.
output: N

input: Given the entry C12U C72U U130G , answer whether its polymerase ribozyme fitness (log ratio) meets or surpasses -4.
output: Y
